test system: ragweed (common ragweed, Ambrosia elatior); assay: Test B pre-/postemergence plant response; format: in vivo; details: 250 g ai/ha, Preemergence, 0 to 100 scale
READOUT_TYPE: Plant response rating, Ragweed
Please reply with the value in numeric form only.

The following compounds have reported results that may help.
Cc1ccc(C)c(-n2c(-c3ccccc3)ncc(C(=O)C3=C(O)CCCC3=O)c2=O)c1 :: 100
Cc1ccc(-n2c(-c3cccc(Cl)c3)ncc(C(=O)C3=C(O)CCCC3=O)c2=O)cc1 :: 95
CCn1c(-c2ccccc2)ncc(C(=O)C2=C(O)CCCC2=O)c1=O :: 95
O=C1CCCC([O-])=C1C(=O)c1cnc(-c2ccccc2)n(-c2ccccc2)c1=O.[K+] :: 90
Cc1cccc(-n2c(-c3cccc(Cl)c3)ncc(C(=O)C3=C(O)CCCC3=O)c2=O)c1 :: 95

// moving on: another record for Plant response rating, Ragweed
Find the measured Plant response rating, Ragweed of `O=C1CCCC(O)=C1C(=O)c1cnc(-c2cccc(Cl)c2)n(-c2ccccc2)c1=O` and report it.
90

###

test system: Surinam grass (Brachiaria decumbens); assay: Test B pre-/postemergence plant response; assay type: in vivo; details: 250 g ai/ha, Preemergence, 0 to 100 scale
READOUT_TYPE: Plant response rating, Surinam Grass
Please reply with the value in numeric form only.

CCCn1c(-c2ccccc2)ncc(C(=O)C2=C(O)CCCC2=O)c1=O [Compound 50] :: 100
Cc1ccc(Cl)cc1-n1c(-c2ccccc2)ncc(C(=O)C2=C(O)CCCC2=O)c1=O [Compound 52] :: 98
CCn1c(-c2ccccc2)ncc(C(=O)C2=C(O)CCCC2=O)c1=O [Compound 49] :: 85
O=C1CCCC(O)=C1C(=O)c1cnc(-c2ccccc2)n(-c2ccc(F)cc2)c1=O [Compound 24] :: 100

// moving on: another record for Plant response rating, Surinam Grass
Find the measured Plant response rating, Surinam Grass of O=C1CCCC(O)=C1C(=O)c1cnc(-c2ccccc2)n(-c2ccccc2Br)c1=O [Compound 37] and report it.
100

###

In this section, each of the compounds is paired with its reported Plant response rating, Barnyardgrass.
tested on: barnyardgrass (Echinochloa crus-galli); experiment: Test B flooded paddy test; format: in vivo; conditions: Flood (flooded paddy test), 62 g ai/ha; scale of 0 to 100 where 0 is no effect and 100 is complete control; 13 to 15 days
Please reply with the value in numeric form only.

O=C1CCCC(O)=C1C(=O)c1cnc(-c2ccccc2)n(CCC(F)(F)F)c1=O [Compound 207] :: 0
O=C1CCCC(O)=C1C(=O)c1cnc(-c2ccc(Br)cc2)n(-c2ccccc2)c1=O [Compound 70] :: 0
Cc1ccc(F)cc1-n1c(-c2cccc(Br)c2)ncc(C(=O)C2=C(O)CCCC2=O)c1=O [Compound 154] :: 0

// moving on: another record for Plant response rating, Barnyardgrass
Find the measured Plant response rating, Barnyardgrass of COCCn1c(-c2cccc(Br)c2)ncc(C(=O)C2=C(O)CCCC2=O)c1=O [Compound 139] and report it.
10

###

test system: corn (Zea mays); assay: Test A pre-/postemergence plant response; type: in vivo; conditions: Postemergence, 125 g ai/ha; visual injury, 0 to 100 scale (0 no effect, 100 complete control), approx. ten days
In this section, each of the compounds is paired with its reported Corn plant response rating.

Cc1ccc(-n2c(-c3ccccc3)ncc(C(=O)C3=C(O)CCCC3=O)c2=O)cc1C :: 0
O=C1CCCC(O)=C1C(=O)c1cnc(-c2cccc(Br)c2)n(-c2ccccc2)c1=O :: 20
CCCCc1ncc(C(=O)C2=C(O)CCCC2=O)c(=O)n1-c1ccccc1C :: 30

Find the measured Corn plant response rating of `Cc1ccc(-n2c(-c3cccc(Cl)c3)ncc(C(=O)C3=C(O)CCCC3=O)c2=O)cc1` and report it.
0

Find the measured Corn plant response rating of `O=C1CCCC(O)=C1C(=O)c1cnc(-c2ccccc2)n(-c2ccc(F)cc2)c1=O` and report it.
0

###

In this section, each of the compounds is paired with its reported Plant response rating, Windgrass.
system: windgrass (Apera spica-venti); test: Test B postemergence plant response; type: in vivo; details: Postemergence, 250 g ai/ha; scale 0 to 100 (0 no effect, 100 complete control)
Please reply with the value in numeric form only.

O=C1CCCC(O)=C1C(=O)c1cnc(-c2ccsc2)n(C2CCCCC2)c1=O :: 60

// moving on: another record for Plant response rating, Windgrass
Find the measured Plant response rating, Windgrass of `CCCCCCn1c(-c2ccccc2)ncc(C(=O)C2=C(O)CCCC2=O)c1=O` and report it.
50

###

system: bermudagrass (Cynodon dactylon); test: Test B pre-/postemergence plant response; assay type: in vivo; conditions: Postemergence, 31 g ai/ha; 0 to 100 scale (0 no effect, 100 complete control)
In this section, each of the compounds is paired with its reported Plant response rating, Bermudagrass.
Please reply with the value in numeric form only.

The following compounds have reported results that may help.
CCCc1ncc(C(=O)C2=C(O)CCCC2=O)c(=O)n1-c1ccccc1 :: 70
CCCn1c(-c2cc(Cl)cc(Cl)c2)ncc(C(=O)C2=C(O)CCCC2=O)c1=O :: 98
CCn1c(-c2cc(F)cc(F)c2)ncc(C(=O)C2=C(O)CCCC2=O)c1=O :: 75

// moving on: another record for Plant response rating, Bermudagrass
Find the measured Plant response rating, Bermudagrass of `CCc1cccc(-n2c(-c3ccccc3)ncc(C(=O)C3=C(O)CCCC3=O)c2=O)c1` and report it.
80

###

In this section, each of the compounds is paired with its reported Plant response rating, Surinam Grass.
test system: Surinam grass (Brachiaria decumbens); test: Test B pre-/postemergence plant response; format: in vivo; details: Postemergence, 31 g ai/ha; 0 to 100 scale (0 no effect, 100 complete control)
Please reply with the value in numeric form only.

The following compounds have reported results that may help.
CCCCn1c(C2CC2)ncc(C(=O)C2=C(O)CCCC2=O)c1=O :: 65
CCCc1ncc(C(=O)C2=C(O)CCCC2=O)c(=O)n1-c1ccccc1 :: 70

Find the measured Plant response rating, Surinam Grass of CCCn1c(-c2ccccc2)ncc(C(=O)C2=C(O)C3CCC(C3)C2=O)c1=O (centres unmarked) and report it.
75

Find the measured Plant response rating, Surinam Grass of `COCCCn1c(-c2cccc(F)c2)ncc(C(=O)C2=C(O)CCCC2=O)c1=O` and report it.
70

Find the measured Plant response rating, Surinam Grass of `O=C1CCCC(O)=C1C(=O)c1cnc(-c2ccccc2)n(C2CCCCCC2)c1=O` and report it.
80

###

tested on: lambsquarters (Chenopodium album); assay: Test B pre-/postemergence plant response; format: in vivo; settings: Preemergence, 62 g ai/ha; scale 0 to 100, 0 no effect, 100 complete control
In this section, each of the molecules is paired with its reported Plant response rating, Lambsquarters.
Please reply with the value in numeric form only.

CCCCn1c(CCC)ncc(C(=O)C2=C(O)CCCC2=O)c1=O :: 100
Cc1cccc(-n2c(-c3ccccc3)ncc(C(=O)C3=C(O)CCCC3=O)c2=O)c1C :: 100
O=C1CCCC(O)=C1C(=O)c1cnc(-c2ccccc2)n(-c2ccc(F)cc2)c1=O :: 100

Find the measured Plant response rating, Lambsquarters of `O=C1CCCC(O)=C1C(=O)c1cnc(-c2cccs2)n(-c2ccccc2)c1=O` and report it.
98

Find the measured Plant response rating, Lambsquarters of `Cc1ccc(C)c(-n2c(-c3ccccc3)ncc(C(=O)C3=C(O)CCCC3=O)c2=O)c1` and report it.
100

###

In this section, each of the molecules is paired with its reported Plant response rating, Soybean.
test system: soybean (Glycine max); assay: Test B pre-/postemergence plant response; format: in vivo; conditions: Preemergence, 62 g ai/ha; scale 0 to 100, 0 no effect, 100 complete control
Please reply with the value in numeric form only.

The following molecules have reported results that may help.
COCCCn1c(-c2cc(F)cc(F)c2)ncc(C(=O)C2=C(O)C3CCC(C3)C2=O)c1=O (stereo not shown) :: 80
CCCCn1c(C2CC2)ncc(C(=O)C2=C(O)CCCC2=O)c1=O :: 60
CCCCc1ncc(C(=O)C2=C(O)CCCC2=O)c(=O)n1-c1ccccc1C :: 80

Find the measured Plant response rating, Soybean of `Cc1ccc(C)c(-n2c(-c3ccccc3)ncc(C(=O)C3=C(O)CCCC3=O)c2=O)c1` and report it.
85

###

tested on: rice (Oryza sativa); experiment: Test B flooded paddy test; type: in vivo; conditions: 250 g ai/ha; flooded paddy test; visual rating on 0 to 100 scale (0 no effect, 100 complete control) after 13 to 15 days
# Plant response rating, Flood, Rice >= 20 gives YES, anything below gives NO

Cc1cccc(-n2c(-c3ccccc3)ncc(C(=O)C3=C(O)CCCC3=O)c2=O)c1 [Compound 18] :: YES

Reported Plant response rating, Flood, Rice at or above 20? O=C1CCCC(O)=C1C(=O)c1cnc(-c2ccsc2)n(C2CCCCC2)c1=O [Compound 99]
YES

Reported Plant response rating, Flood, Rice at or above 20? O=C1CCCC(O)=C1C(=O)c1cnc(-c2ccc(Cl)cc2)n(-c2ccccc2)c1=O [Compound 25]
NO

Reported Plant response rating, Flood, Rice at or above 20? O=C1CCCC(O)=C1C(=O)c1cnc(-c2ccsc2)n(C2CCOCC2)c1=O [Compound 186]
YES

Reported Plant response rating, Flood, Rice at or above 20? O=C1CCCC(O)=C1C(=O)c1cnc(-c2ccccc2)n(C2CCCCCCC2)c1=O [Compound 215]
NO

Reported Plant response rating, Flood, Rice at or above 20? O=C1CCCC(O)=C1C(=O)c1cnc(-c2ccsc2)n(CC2CCCO2)c1=O (centres unmarked) [Compound 98]
YES

Reported Plant response rating, Flood, Rice at or above 20? CCCCCCn1c(-c2ccccc2)ncc(C(=O)C2=C(O)CCCC2=O)c1=O [Compound 94]
YES

Reported Plant response rating, Flood, Rice at or above 20? CCCCn1c(-c2cccc(C)c2)ncc(C(=O)C2=C(O)C3CCC(C3)C2=O)c1=O (centres unmarked) [Compound 232]
NO

Reported Plant response rating, Flood, Rice at or above 20? COc1cccc(-c2ncc(C(=O)C3=C(O)CCCC3=O)c(=O)n2C2CCCCC2)c1 [Compound 196]
YES

Reported Plant response rating, Flood, Rice at or above 20? CCc1ccc(-n2c(-c3cccc(F)c3)ncc(C(=O)C3=C(O)CCCC3=O)c2=O)cc1 [Compound 204]
YES

Reported Plant response rating, Flood, Rice at or above 20? COCCCn1c(-c2cc(F)cc(F)c2)ncc(C(=O)C2=C(O)C3CCC(C3)C2=O)c1=O (centres unmarked) [Compound 244]
YES

Reported Plant response rating, Flood, Rice at or above 20? O=C1CCCC(O)=C1C(=O)c1cnc(-c2ccccc2)n(C2CCCCCC2)c1=O [Compound 130]
YES

Reported Plant response rating, Flood, Rice at or above 20? Cc1cccc(-c2ncc(C(=O)C3=C(O)CCCC3=O)c(=O)n2-c2cc(F)ccc2C)c1 [Compound 178]
YES

Reported Plant response rating, Flood, Rice at or above 20? Cc1cc(F)ccc1-n1c(-c2ccccc2)ncc(C(=O)C2=C(O)CCCC2=O)c1=O [Compound 48]
YES

Reference source for all entries: patent US8952024B2
